- experimental details: Inhibition of lauric acid hydroxylase cytochrome P450 4A
- Parameters: species or system Rattus norvegicus
pIC50: −log10 of the molar value.
result type: pIC50

compound: CC(=O)N1CCN(c2ccc(OC[C@@H]3CO[C@](Cn4ccnc4)(c4ccc(Cl)cc4Cl)O3)cc2)CC1
result type: pIC50
experimental result: < 4.00

compound: CC(=O)N1CCN(c2ccc(OC[C@H]3CO[C@@](Cn4ccnc4)(c4ccc(Cl)cc4Cl)O3)cc2)CC1
result type: pIC50
experimental result: < 4.00

compound: CC(=O)N1CCN(c2ccc(OCC3COC(Cn4ccnc4)(c4ccc(Cl)cc4Cl)O3)cc2)CC1 (stereo in doubt; 4)
result type: pIC50
experimental result: < 4.00

This collection of values is drawn from ChEMBL document CHEMBL1125500.
